tested on: protein sample; assay: Protein quality control screen: melting point temperature vs pH and NaCl concentration; assay type: physicochemical; conditions: pH 7; NaCl Concentration 0.75

{"columns": ["molecule", "protein melting point temperature [°C]"],
 "data": [
  ["[Cl-].[Na+] [sodium chloride]", 77.5]
]}

---

tested on: protein sample; assay: Protein quality control screen: melting point temperature vs pH and NaCl concentration; type: physicochemical; settings: pH 8; NaCl Concentration 2

{"columns": ["compound", "unit.of.measurement", "protein melting point temperature"],
 "data": [
  ["[Cl-].[Na+] [sodium chloride]", "°C", 74.5]
]}

---

tested on: protein sample; assay: Protein quality control screen: melting point temperature vs pH and NaCl concentration; type: physicochemical; details: pH 7.5; NaCl Concentration 0.75
assay.endpoint: protein melting point temperature (°C)

{"columns": ["molecule", "value.observed"],
 "data": [
  ["[Cl-].[Na+] [sodium chloride]", 78]
]}

---

test system: protein sample; test: Protein quality control screen: melting point temperature vs pH and NaCl concentration; assay type: physicochemical; settings: pH 8.5; NaCl Concentration 1.25
assay.endpoint: protein melting point temperature (°C)

{"columns": ["molecule", "unit.of.measurement", "value.observed"],
 "data": [
  ["[Cl-].[Na+] [sodium chloride]", "°C", 75]
]}

---

test system: protein sample; experiment: Protein quality control screen: melting point temperature vs pH and NaCl concentration; format: physicochemical; settings: pH 5.5; NaCl Concentration 1.5

{"columns": ["molecule", "protein melting point temperature"],
 "data": [
  ["[Cl-].[Na+] [sodium chloride]", "77 °C"]
]}

---

tested on: protein sample; test: Protein quality control screen: melting point temperature vs pH and NaCl concentration; type: physicochemical; conditions: pH 6.5; NaCl Concentration 0.125
assay.endpoint: protein melting point temperature (°C)

{"columns": ["compound", "unit.of.measurement", "value.observed"],
 "data": [
  ["[Cl-].[Na+] [sodium chloride]", "°C", 76]
]}

---

tested on: protein sample; experiment: Protein quality control screen: melting point temperature vs pH and NaCl concentration; format: physicochemical; conditions: pH 8; NaCl Concentration 1.25
assay.endpoint: protein melting point temperature

{"columns": ["molecule", "target.or.system", "value.observed"],
 "data": [
  ["[Cl-].[Na+] [sodium chloride]", "protein sample", "76.5 °C"]
]}

---

Test system: protein sample
Experiment: Protein quality control screen: melting point temperature vs pH and NaCl concentration
Type: physicochemical
Conditions: pH 6; NaCl Concentration 0.125
Source text: In one embodiment, the present invention contemplates a method comprising a protein quality control screen. Although it is not necessary to understand the mechanism of an invention, it is believed that a quality control screen may be used to analyze: i) comparison of protein state prior to storage and post storage; ii) protein synthesis/purification lot-to-lot comparison; and iii) protein synthesis/purification batch testing. […]
assay.endpoint: protein melting point temperature (°C)

{"columns": ["molecule", "assay.endpoint", "value.observed"],
 "data": [
  ["[Cl-].[Na+] [sodium chloride]", "protein melting point temperature", 75]
]}

---

test system: protein sample; test: Protein quality control screen: melting point temperature vs pH and NaCl concentration; type: physicochemical; conditions: pH 5; NaCl Concentration 1.25

{"columns": ["compound", "protein melting point temperature [°C]"],
 "data": [
  ["[Cl-].[Na+] [sodium chloride]", 77]
]}

---

test system: protein sample; experiment: Protein quality control screen: melting point temperature vs pH and NaCl concentration; assay type: physicochemical; conditions: pH 6.5; NaCl Concentration 1
assay.endpoint: protein melting point temperature (°C)

{"columns": ["compound", "assay.endpoint", "value.observed"],
 "data": [
  ["[Cl-].[Na+] [sodium chloride]", "protein melting point temperature", 77.5]
]}

---

tested on: protein sample; assay: Protein quality control screen: melting point temperature vs pH and NaCl concentration; format: physicochemical; conditions: pH 7.5; NaCl Concentration 0.25

{"columns": ["compound", "unit.of.measurement", "protein melting point temperature"],
 "data": [
  ["[Cl-].[Na+] [sodium chloride]", "°C", 77.5]
]}

---

Tested on: protein sample
Test: Protein quality control screen: melting point temperature vs pH and NaCl concentration
Assay type: physicochemical
Details: pH 9; NaCl Concentration 1.25
Excerpt: In one embodiment, the present invention contemplates a method comprising a protein quality control screen. Although it is not necessary to understand the mechanism of an invention, it is believed that a quality control screen may be used to analyze: i) comparison of protein state prior to storage and post storage; ii) protein synthesis/purification lot-to-lot comparison; and iii) protein synthesis/purification batch testing. […]

{"columns": ["compound", "target.or.system", "protein melting point temperature"],
 "data": [
  ["[Cl-].[Na+] [sodium chloride]", "protein sample", "75 °C"]
]}

---

tested on: protein sample; test: Protein quality control screen: melting point temperature vs pH and NaCl concentration; type: physicochemical; details: pH 8; NaCl Concentration 0.75
assay.endpoint: protein melting point temperature (°C)

{"columns": ["molecule", "assay.endpoint", "value.observed"],
 "data": [
  ["[Cl-].[Na+] [sodium chloride]", "protein melting point temperature", 77.5]
]}

---

system: protein sample; assay: Protein quality control screen: melting point temperature vs pH and NaCl concentration; format: physicochemical; conditions: pH 5; NaCl Concentration 0.125

{"columns": ["compound", "unit.of.measurement", "protein melting point temperature"],
 "data": [
  ["[Cl-].[Na+] [sodium chloride]", "°C", 73]
]}

---

system: protein sample; assay: Protein quality control screen: melting point temperature vs pH and NaCl concentration; format: physicochemical; details: pH 5; NaCl Concentration 2

{"columns": ["compound", "target.or.system", "protein melting point temperature, °C"],
 "data": [
  ["[Cl-].[Na+] [sodium chloride]", "protein sample", 77]
]}

---

tested on: protein sample; assay: Protein quality control screen: melting point temperature vs pH and NaCl concentration; format: physicochemical; conditions: pH 9; NaCl Concentration 2
assay.endpoint: protein melting point temperature (°C)

{"columns": ["compound", "unit.of.measurement", "value.observed"],
 "data": [
  ["[Cl-].[Na+] [sodium chloride]", "°C", 74]
]}

---

system: protein sample; assay: Protein quality control screen: melting point temperature vs pH and NaCl concentration; assay type: physicochemical; conditions: pH 8.5; NaCl Concentration 0.5
assay.endpoint: protein melting point temperature (°C)

{"columns": ["compound", "value.observed"],
 "data": [
  ["[Cl-].[Na+] [sodium chloride]", 76]
]}

---

Catalogue of concentration for customized buffer system for Dwarf27 readings, one per entry.
target: Dwarf27 protein (Oryza sativa subsp. japonica); test: Dwarf27 protein stability screen in MES-BTP buffer mixture (melting point temperature); type: physicochemical; details: MES-BTP; Spyro Orange
Sequence (C7AU21 41-278): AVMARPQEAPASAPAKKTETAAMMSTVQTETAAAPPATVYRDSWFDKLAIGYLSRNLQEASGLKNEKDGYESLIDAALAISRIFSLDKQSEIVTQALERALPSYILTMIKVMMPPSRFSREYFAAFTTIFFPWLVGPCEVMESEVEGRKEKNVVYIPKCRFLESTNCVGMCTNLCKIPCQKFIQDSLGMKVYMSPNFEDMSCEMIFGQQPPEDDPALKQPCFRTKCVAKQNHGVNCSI
assay.endpoint: concentration for customized buffer system for Dwarf27

{"columns": ["compound", "target.or.system", "value.observed"],
 "data": [
  ["O=P([O-])([O-])O.[Na+].[Na+] [sodium phosphate dibasic]", "Dwarf27 protein (Oryza sativa subsp. japonica)", "50 mM"],
  ["N[C@@H](CCC(=O)O)C(=O)O [glutamic acid]", "Dwarf27 protein (Oryza sativa subsp. japonica)", "25 mM"],
  ["OCC(O)CO [glycerol]", "Dwarf27 protein (Oryza sativa subsp. japonica)", "2.5%"],
  ["C[S+](C)[O-] [DMSO, dimethyl sulfoxide]", "Dwarf27 protein (Oryza sativa subsp. japonica)", "7%"],
  ["O=S(=O)(O)CCN1CCN(CCS(=O)(=O)O)CC1 [PIPES]", "Dwarf27 protein (Oryza sativa subsp. japonica)", "100 mM"],
  ["[Cl][Co][Cl] [cobalt chloride]", "Dwarf27 protein (Oryza sativa subsp. japonica)", "0.005 to 0.025 mM"]
]}

---

tested on: protein sample; assay: Protein quality control screen: melting point temperature vs pH and NaCl concentration; format: physicochemical; details: pH 8; NaCl Concentration 0.25
assay.endpoint: protein melting point temperature (°C)

{"columns": ["molecule", "target.or.system", "unit.of.measurement", "value.observed"],
 "data": [
  ["[Cl-].[Na+] [sodium chloride]", "protein sample", "°C", 77.5]
]}

---

system: protein sample; test: Protein quality control screen: melting point temperature vs pH and NaCl concentration; assay type: physicochemical; conditions: pH 7; NaCl Concentration 1

{"columns": ["compound", "protein melting point temperature"],
 "data": [
  ["[Cl-].[Na+] [sodium chloride]", "77.5 °C"]
]}

---

tested on: protein sample; assay: Protein quality control screen: melting point temperature vs pH and NaCl concentration; type: physicochemical; conditions: pH 8.5; NaCl Concentration 1.5

{"columns": ["molecule", "unit.of.measurement", "protein melting point temperature"],
 "data": [
  ["[Cl-].[Na+] [sodium chloride]", "°C", 75]
]}

The measured values listed here are drawn from patent US11001872B2.
